// provenance: patent US20210324080A1

Target: T1, CTLA-4-hFc (immunogen A; hFc-labeled CTLA-4 extracellular domain protein) (human, UniProt P16410 36-161)
T1 construct: range 36-161; Made in HEK293 cells, purified on protein A; also called CLTA-4-hFc; CTLA-4 protein; not shown: human IgG Fc fragment (hFc) of the pCpC vector
T1 sequence (looked up): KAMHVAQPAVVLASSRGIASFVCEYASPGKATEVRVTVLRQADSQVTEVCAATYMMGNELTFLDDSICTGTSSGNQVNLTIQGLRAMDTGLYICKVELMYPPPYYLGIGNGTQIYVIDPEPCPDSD
Assay: ELISA, coated CTLA-4-hFc, competitor biotin-B7.1-hFc
Endpoint label: Inhibition rate (%) at 2.5 nM
# number only, unit % dropped from output

## Task Given the entry 31C12F3 (chimeric antibody purified from hybridoma supernatant) (antibody, V domains shown, also called mAb010) VH: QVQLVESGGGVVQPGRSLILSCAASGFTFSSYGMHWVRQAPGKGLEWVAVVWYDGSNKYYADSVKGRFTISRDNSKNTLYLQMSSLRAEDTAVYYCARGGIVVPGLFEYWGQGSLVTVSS VL: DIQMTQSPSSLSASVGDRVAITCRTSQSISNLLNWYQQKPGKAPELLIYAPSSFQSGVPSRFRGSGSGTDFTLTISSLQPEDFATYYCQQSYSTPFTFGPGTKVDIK , report its measured Inhibition rate (%) at 2.5 nM.
## Result 87.7
